- Tested on: c-Abl (mouse)
- Protocol Notes: phosphorylation enrichment, bacterial display (enrichment ratio); higher = better substrate or ligand; peptides without Tyr show the background;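 note: 11-residue human phosphosite peptides and single-mutation variants displayed on the E. coli surface, counted by deep sequencing, each peptide's frequency after selection divided by its frequency in the unselected input library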;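 note: frequency after pTyr selection over input frequency; kinase dosed for 20-30% of maximal phosphorylation in three min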
Lab note: anything with phosphorylation enrichment at or over 0.8 counts as YES; the rest go in NO.

> print(dat)
                        sequence.code  experimental.system  class.name
1  GIVEDYRPRFF [ACVRL1_Y421_P424R_YF]        c-Abl (mouse)          NO
2      KTGNIYRTEYG [MRPL3_Y265_M261T]        c-Abl (mouse)          NO
3          QKLPSYILENN [VPS13B_Y2774]        c-Abl (mouse)         YES
4    IKGNMYFENSF [EGFR_Y112_R108K_YF]        c-Abl (mouse)         YES
5       KYLENYLNCLL [PLD2_Y169_R172C]        c-Abl (mouse)         YES

====

phosphorylation enrichment values for the sequences below.
- Experimental System: Fes (UniProt P07332)
- Sequence (P07332 whole entry, looked up): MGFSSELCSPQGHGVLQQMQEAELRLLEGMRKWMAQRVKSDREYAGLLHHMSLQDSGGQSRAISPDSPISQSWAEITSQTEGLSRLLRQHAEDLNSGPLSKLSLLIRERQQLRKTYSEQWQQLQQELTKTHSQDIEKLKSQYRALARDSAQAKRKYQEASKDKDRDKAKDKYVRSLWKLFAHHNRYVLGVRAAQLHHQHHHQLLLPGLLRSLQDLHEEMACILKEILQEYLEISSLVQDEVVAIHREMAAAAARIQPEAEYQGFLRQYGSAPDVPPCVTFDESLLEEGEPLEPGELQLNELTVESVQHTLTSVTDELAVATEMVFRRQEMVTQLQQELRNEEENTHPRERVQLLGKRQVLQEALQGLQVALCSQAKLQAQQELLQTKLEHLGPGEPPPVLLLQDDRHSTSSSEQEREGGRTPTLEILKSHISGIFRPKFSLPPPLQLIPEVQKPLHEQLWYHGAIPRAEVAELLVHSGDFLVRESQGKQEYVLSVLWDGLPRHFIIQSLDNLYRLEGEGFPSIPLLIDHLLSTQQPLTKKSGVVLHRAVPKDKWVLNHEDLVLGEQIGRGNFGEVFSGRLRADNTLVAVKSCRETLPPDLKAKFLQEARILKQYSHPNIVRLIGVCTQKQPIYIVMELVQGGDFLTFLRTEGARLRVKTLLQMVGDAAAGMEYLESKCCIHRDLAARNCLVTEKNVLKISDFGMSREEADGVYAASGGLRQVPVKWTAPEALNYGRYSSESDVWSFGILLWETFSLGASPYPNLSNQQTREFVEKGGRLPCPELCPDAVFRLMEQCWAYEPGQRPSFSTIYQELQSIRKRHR
- Protocol Notes: phosphorylation enrichment, bacterial display (enrichment ratio); higher = better substrate or ligand; peptides without Tyr show the background
Assay Readout: phosphorylation enrichment

> print(dat)
                       sequence.code   experimental.system  result
 1      RAHARYCADAC [ACOT4_Y52_R57C]  Fes (UniProt P07332)   0.677
 2    RPPFTYATLIH [FOXP3_Y342_R347H]  Fes (UniProt P07332)    1.22
 3        IRFSDYVEVAD [PHACTR1_Y525]  Fes (UniProt P07332)    1.01
 4     ATHRGYDLDNP [MMUT_Y146_S148L]  Fes (UniProt P07332)    0.79
 5      PDMHSYMVRFN [GRIN2D_Y732_YF]  Fes (UniProt P07332)   0.931
 6        ISIFYYAKGQP [MPZ_Y82_H81Y]  Fes (UniProt P07332)    1.72
 7       LLANAYIFVVQ [L1CAM_Y418_YF]  Fes (UniProt P07332)    2.13
 8    PQDSAYHSGIQ [FLG_Y3940_S3935P]  Fes (UniProt P07332)   0.755
 9  KKHIPCREHKS [CSNK1G2_Y206_Y206C]  Fes (UniProt P07332)    2.35
10     NDDDVYLSLEE [VAV2_Y142_R143L]  Fes (UniProt P07332)    1.48
11          EKAEVYGSENE [RIOK2_Y348]  Fes (UniProt P07332)       1
12    TQKLAYVELQQ [CENPF_Y700_M701V]  Fes (UniProt P07332)       1
13          AAVNGYAFGGG [ECHS1_Y137]  Fes (UniProt P07332)   0.553
14           EAVSIYQFHGQ [CBLC_Y402]  Fes (UniProt P07332)   0.926
15  NFSKMYCNPDA [KNL1_Y489_A486S_YF]  Fes (UniProt P07332)   0.924
16          TLKVGYTEKQR [EPHA3_Y659]  Fes (UniProt P07332)   0.378
17   VVDVTYDDVPI [FLNB_Y1308_E1305D]  Fes (UniProt P07332)    1.27
18   NRVEIYDKTVE [CYFIP1_Y108_E109D]  Fes (UniProt P07332)   0.938
19     PSRKDYETFQP [CTNND2_Y1154_YF]  Fes (UniProt P07332)    1.21
20    GGEEFYVHFVG [KAT8_Y90_R86G_YF]  Fes (UniProt P07332)    1.39
21           KTDKKYLMIEE [BAG3_Y451]  Fes (UniProt P07332)    1.11
22    LAVGDYMRRQK [ATM_Y1915_V1913G]  Fes (UniProt P07332)   0.734
23  PSQRRNVFFFS [PTEN_Y174_Y174N_YF]  Fes (UniProt P07332)    1.23
24   RYVTRHIYNRE [HLA-DQB1_Y62_Y62H]  Fes (UniProt P07332)   0.777
25           KDDEKYLDVIR [MTM1_Y260]  Fes (UniProt P07332)   0.971
26       AGHEEYSAMRD [KRAS_Y64_Q61H]  Fes (UniProt P07332)   0.981
27  GGYNNYGYGSD [HNRNPH3_Y159_N163S]  Fes (UniProt P07332)   0.697
28          GVLDIYGFEIL [MYO1A_Y382]  Fes (UniProt P07332)    1.14
29      ITNLLYHVVGG [GBA_Y412_W417G]  Fes (UniProt P07332)    1.12
30       FETDFYRKGGK [INSR_Y1190_YF]  Fes (UniProt P07332)   0.758
31          KERNQYGEVMV [MMP21_Y347]  Fes (UniProt P07332)   0.734
32           GEHSIYCTVNN [CD55_Y266]  Fes (UniProt P07332)    1.73
33          DDSNLYINVKL [MTHFD1_Y52]  Fes (UniProt P07332)    1.63
34     EKESCYILHSS [PATJ_Y783_E779K]  Fes (UniProt P07332)    1.09
35       QSSEGYGLGDR [KIAA1210_Y564]  Fes (UniProt P07332)    1.06
36     ECKETYHEGEC [PRKN_Y372_A371T]  Fes (UniProt P07332)    1.62
37   GETEQYVGGGG [FAT4_Y4980_A4977T]  Fes (UniProt P07332)   0.922
38     CTTIHYNYTCN [TP53_Y234_M237T]  Fes (UniProt P07332)   0.837
39      TDLAYYLVREG [ASL_Y376_K380E]  Fes (UniProt P07332)   0.905
40           LEDEVYAQKMK [TPM2_Y261]  Fes (UniProt P07332)    2.74
41        RAADFYSQQMA [GBP6_Y334_YF]  Fes (UniProt P07332)   0.769
42      CQLENYCNGGG [INS_Y108_Y103C]  Fes (UniProt P07332)    0.89
43       RIGRKYKRVRF [F8_Y442_K444R]  Fes (UniProt P07332)    3.31
44          TDHLRYFDSNK [ARAP1_Y359]  Fes (UniProt P07332)   0.794
45        KVITDYFVDMK [MPP4_Y566_YF]  Fes (UniProt P07332)    1.36
46           HEEDNYIELIP [NWD2_Y566]  Fes (UniProt P07332)    2.29
47      SLFNGYVYSGM [NEIL3_Y71_V76M]  Fes (UniProt P07332)   0.994
48     PTKNDYWAMPA [WWOX_Y287_L291P]  Fes (UniProt P07332)    1.03
49       PTTMTYFPHFD [HBA1_Y43_K41M]  Fes (UniProt P07332)    1.01
50          EDASEYFENYI [PARP4_Y214]  Fes (UniProt P07332)    1.21
